- test: logP determination by HPLC on a reversed-phase column (C 18), EEC Directive 79/831 Annex V.A8
- Type: physicochemical
- condition.parameters: value marked [b]
readout.kind: logP

Qu. Which measured logP value corresponds to CC(=NOCCCCON=C(C)c1cccc(C)n1)c1cccnc1 [compound 384] ?
Ans. 2.18^[b]

Qu. For COc1ccc(C(C)=NOCC(C)(C)CON=C(C)c2cccc(C)n2)cc1OC [compound 414] , what is its reported logP?
Ans. 4.57^[b]

Qu. Any idea what logP was measured for CC(=NOCCCCCCON=C(C)c1cccc(CC(C)C)n1)c1cccc(C)n1 [compound 342] ?
Ans. 7.36^[b]

Qu. // query logP value for entry CC(=NOCCCCON=C(C)c1cccc(C)n1)c1ccc(Cl)cc1 [compound 444]
Ans. 5.54^[b]

Qu. // query logP value for entry C=C(CON=C(C)c1cccc(C)n1)CON=C(C)c1ccnc(C)n1 [compound 360]
Ans. 3.24^[b]

Qu. Requested read-out: logP. Entry: CC(=NOCC(C)(C)CON=C(C)c1cccc(C)n1)c1ccc(C)nc1 [Compound 416]
Ans. 2.41^[b]

Qu. Dear colleague, I am looking for the recorded logP of the following molecule: CC(=NOCC(C)CON=C(C)c1nc(C)ccc1C)c1nc(C)ccc1C (single isomer, unassigned) [compound 268]
Ans. 2.08^[b] (isomer A)

Qu. Return reported logP; argument: CC(=NOCC(C)(C)CON=C(C)c1cccc(C)n1)c1cc(C)ccn1 [compound 409]
Ans. 3.65^[b]

Qu. // query logP value for entry C=C(CON=C(C)c1cccc(C)n1)CON=C(C)c1cc(C)cc(C)n1 [Compound 474]
Ans. 2.55^[b]

Qu. Any idea what logP was measured for CC(=NOCC(C)CON=C(C)c1cccc(C)n1)c1ccc2c(c1)OCO2 (stereo not drawn) [compound 435] ?
Ans. 4.57^[b]

Qu. Name the recorded logP for CC(=NOCC1(CON=C(C)c2nc(C)ccc2C)COC(=O)N1)c1nc(C)ccc1C (stereo not drawn) [compound 859] .
Ans. 1.70^[b]

Qu. Reported logP for CC(=NOCCCCCCON=C(C)c1cccc(C)n1)c1ccccc1 [compound 397] : what is it?
Ans. 5.78^[b]

Qu. Please report the recorded logP for CC(=NOCCCCON=C(C)c1cccc(Cc2ccccc2)n1)c1cccc(C)n1 [compound 324] .
Ans. 5.84^[b]

Qu. Which logP value is on record for CC(=NOCCCCON=C(C)c1cccc(C)n1)c1cccc(C(F)(F)F)c1 [Compound 375] ?
Ans. 5.54^[b]

Qu. Entry CC(=NOCC(C)(C)CON=C(C)c1cccc(CC(C)C)n1)c1cccc(C)n1 [Compound 367] has what logP?
Ans. 7.07^[b]

Qu. logP for CC(=NOCCCCCCON=C(C)c1cccc(C)n1)c1cccnc1 [compound 396] ?
Ans. 3.15^b]

Qu. Fill blank: measured logP of the molecule CC(=NOCCC(C)ON=C(C)c1cccc(C)n1)c1cccc(C)n1 (stereo not drawn) [Compound 295] is ____.
Ans. 3.34^[b]

Qu. Param item = Cc1nc(C(N)=NOC/C=C/CON=C(N)c2nc(C)c(Cl)c(C)n2)nc(C)c1Cl [compound 774] ; retrieve measured logP.
Ans. 2.70^[b]

Qu. I'd like to know its logP. The molecule in question is CC(=NOC[C@@H]1O[C@@H]1CON=C(C)c1cccc(C)n1)c1cccc(C)n1 [compound 287]
Ans. 2.42^[b]

Qu. # lookup: logP of C=C(CON=C(C)c1ccncc1)CON=C(C)c1cccc(C)n1 [compound 467]
Ans. 1.88^[b]

Qu. Can you look up the measured logP of CC(=NOCCCCCCON=C(C)c1ccnc(C)n1)c1cccc(C)n1 [compound 348] for me?
Ans. 4.51^[b]

Qu. Return reported logP; argument: CC(=NOCC(C)(C)CON=C(C)c1cccc(C)n1)c1ccccc1 [compound 419]
Ans. 5.42^[b]

Qu. # get_value(readout='logP', item= CC(=NOCC1(CON=C(C)c2nc(C)ccc2C)CCCC1)c1nc(C)ccc1C (single isomer, unassigned) [compound 762] )
Ans. 3.04^[b]

Qu. What measured logP goes with C=C(CON=C(C)c1cccc(C)n1)CON=C(C)c1cccc(C(C)C)n1 [compound 479] ?
Ans. 5.78^[b]

Qu. What value of logP has been reported for the following molecule? CC(=NOCC(C)CON=C(c1cccc(C)n1)C1CC1)c1cccc(C)n1 (stereo not drawn) [Compound 429]
Ans. 3.61^[b]

Qu. Can you share its logP? I mean this molecule: CC(=NOCCCCCCON=C(c1cccc(C)n1)C(C)C)c1cccc(C)n1 (single isomer, unassigned) [compound 527]
Ans. 6.03^[b](isomer B)

Qu. # logP lookup, item CC(=NOCC(C)CON=C(C)c1cccc(C)n1)c1cccnc1 (stereo not drawn) [compound 438]
Ans. 2.34^[b]

###

- test: logP determination by HPLC on a reversed-phase column (C 18), EEC Directive 79/831 Annex V.A8
- Format: physicochemical
- condition.parameters: method marker [b]; isomer A / isomer B / isomer mixture as noted in the cell
Give measured logP for each item. Keep answers brief.

Qu. So what's the measured logP for this one? CC(=NOCCON=C(C)c1nc(C)cs1)c1nc(C)cs1
Ans. 3.63^[b]

Qu. So what does the record say about logP for C=C(CON=C(C)c1nc(C)cc(OC)n1)CON=C(C)c1nc(C)cc(OC)n1 ?
Ans. 3.17^[b]

Qu. Fill blank: measured logP of the compound C=C(CON=C(C)c1cccc(C(C)=O)n1)CON=C(C)c1cccc(C(C)=O)n1 is ____.
Ans. 5.15^[b]

Qu. For the compound CC(=NOCCON=C(C)c1cccnc1)c1cccnc1 , what logP is on record?
Ans. 1.32^[b]

Qu. Form field: reported logP of C=C(CON=C(C)c1cccc(OC)n1)CON=C(C)c1cccc(OC)n1
Ans. 5.89^[b]

Qu. Which logP reading was recorded for the compound CC(=NOCCON=C(C)c1nc(C)c(C)s1)c1nc(C)c(C)s1 ?
Ans. 4.35^[b]
